As shown below, each of these compounds has a reported C3.8 score value.
- EXPERIMENTAL SYSTEM: CDK7/cyclinH/MAT1 (h) (Homo sapiens, UniProt P50613)
- Sequence (P50613 whole entry): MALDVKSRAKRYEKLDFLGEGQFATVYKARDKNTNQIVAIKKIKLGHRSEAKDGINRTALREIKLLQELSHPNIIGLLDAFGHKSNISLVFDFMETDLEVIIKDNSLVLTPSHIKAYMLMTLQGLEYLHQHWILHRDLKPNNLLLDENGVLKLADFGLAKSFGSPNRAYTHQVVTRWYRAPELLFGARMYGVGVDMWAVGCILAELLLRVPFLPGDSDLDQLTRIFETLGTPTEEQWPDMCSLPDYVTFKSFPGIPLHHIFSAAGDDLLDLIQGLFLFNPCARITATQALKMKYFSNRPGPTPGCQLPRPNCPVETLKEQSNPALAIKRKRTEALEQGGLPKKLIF
- Sequence (P51946 whole entry partner): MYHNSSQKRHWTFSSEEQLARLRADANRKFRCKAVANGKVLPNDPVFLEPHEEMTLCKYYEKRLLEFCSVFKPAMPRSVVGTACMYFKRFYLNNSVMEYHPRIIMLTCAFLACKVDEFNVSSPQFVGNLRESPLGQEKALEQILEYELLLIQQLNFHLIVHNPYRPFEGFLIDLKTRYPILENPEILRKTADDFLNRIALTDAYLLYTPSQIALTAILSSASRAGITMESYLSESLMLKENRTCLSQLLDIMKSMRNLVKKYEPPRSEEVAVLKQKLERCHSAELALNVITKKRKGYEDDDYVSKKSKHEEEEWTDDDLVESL
- Sequence (P51948 whole entry partner): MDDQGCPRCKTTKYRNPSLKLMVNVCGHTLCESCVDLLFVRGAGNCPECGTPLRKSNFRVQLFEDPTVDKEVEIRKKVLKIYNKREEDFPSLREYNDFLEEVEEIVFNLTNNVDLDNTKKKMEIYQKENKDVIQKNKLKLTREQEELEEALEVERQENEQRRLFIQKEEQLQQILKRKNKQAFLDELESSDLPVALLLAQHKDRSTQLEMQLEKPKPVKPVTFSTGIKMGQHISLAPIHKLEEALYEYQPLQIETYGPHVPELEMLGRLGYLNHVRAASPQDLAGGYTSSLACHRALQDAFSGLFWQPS
- TEST: Kinase profiling C3.8 CDK7/cyclinH/MAT1 human
- Type: biochemical
- RUN PARAMETERS: CDK7/cyclinH/MAT1, test concentration of 10^−6 M

Consider the worked cases shown below.
In [3]: df
Out[3]:
                                   compound                       experimental_system  readout_type                   value_observed
0  CCN1CC(=O)NCCCc2cc(ccn2)-c2ncnc(n2)Nc2cc(Cl)cc(c2)C1 [Compound 34]  CDK7/cyclinH/MAT1 (h) (Homo sapiens, UniProt P50613)    C3.8 score  2 (Score 2 = 30-60% inhibition)
1  CN1CC(=O)NCCCc2cc(ccn2)-c2ncnc(n2)Nc2cc(Cl)cc(c2)C1 [Compound 33]  CDK7/cyclinH/MAT1 (h) (Homo sapiens, UniProt P50613)    C3.8 score  3 (Score 3 = 60-80% inhibition)
2  CN1Cc2cccc(c2)Nc2ncnc(n2)-c2ccnc(c2)NCCCNC(=O)CCN2CCC1CC2 [Compound 23]  CDK7/cyclinH/MAT1 (h) (Homo sapiens, UniProt P50613)    C3.8 score  1 (Score 1 = 10-30% inhibition)

Exercise: // Input: O=C1NCCCc2cc(ccn2)-c2ncnc(n2)Nc2cc(Cl)cc(c2)CN2CCCC1C2 (centres unmarked) [Compound 39] . Output its C3.8 score only.
Key: 3 (Score 3 = 60-80% inhibition)

Exercise: Given CN1CC(=O)NCCCc2cc(ccn2)-c2ncnc(n2)Nc2cccc(c2)C1 [Compound 10] , respond with its C3.8 score.
Key: 4 (Score 4 = >80% inhibition)

Exercise: For the compound O=C1CCN2CCN(CC2)Cc2cccc(c2)Nc2ncnc(n2)-c2ccnc(c2)CCCN1 [Compound 35] , give its measured C3.8 score value.
Key: 4 (Score 4 = >80% inhibition)

Exercise: Output C3.8 score of O=C1CC2CCN(CCCc3cc(ccn3)-c3ncnc(n3)Nc3cccc(c3)CCN1)CC2 [Compound 27]
Key: 1 (Score 1 = 10-30% inhibition)

Exercise: Identify measured C3.8 score associated with CN1CC(=O)NC/C(Cl)=C/c2cc(ccn2)-c2ncnc(n2)Nc2cccc(c2)C1 [Compound 2]
Key: 3 (Score 3 = 60-80% inhibition)

----------
- EXPERIMENTAL SYSTEM: CDK5/p35 human (Homo sapiens, UniProt Q00535)
- Sequence (Q00535 whole entry): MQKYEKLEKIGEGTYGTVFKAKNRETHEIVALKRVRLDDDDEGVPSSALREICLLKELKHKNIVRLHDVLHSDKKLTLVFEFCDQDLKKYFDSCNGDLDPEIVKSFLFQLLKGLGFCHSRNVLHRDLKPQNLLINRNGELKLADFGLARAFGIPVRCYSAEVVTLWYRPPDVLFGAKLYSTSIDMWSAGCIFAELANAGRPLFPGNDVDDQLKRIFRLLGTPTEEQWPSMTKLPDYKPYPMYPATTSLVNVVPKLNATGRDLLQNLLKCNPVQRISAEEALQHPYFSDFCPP
- Sequence (Q15078 whole entry partner): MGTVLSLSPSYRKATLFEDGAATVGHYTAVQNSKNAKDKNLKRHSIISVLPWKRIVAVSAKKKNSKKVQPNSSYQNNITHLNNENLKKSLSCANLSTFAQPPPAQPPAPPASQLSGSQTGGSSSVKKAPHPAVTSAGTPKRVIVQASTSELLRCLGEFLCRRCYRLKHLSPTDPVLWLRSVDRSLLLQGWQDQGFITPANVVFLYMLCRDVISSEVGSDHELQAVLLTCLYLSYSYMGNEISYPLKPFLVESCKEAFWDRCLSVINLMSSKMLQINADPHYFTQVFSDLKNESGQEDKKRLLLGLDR
- TEST: Kinase profiling C3.6 CDK5/p35 human
- Assay type: biochemical
- RUN PARAMETERS: CDK5/p35, test concentration of 10^−6 M
READOUT TYPE: C3.6 score

# example entries with known answers
                                   molecule                   value_observed
0  CCN1CC(=O)NCCCc2cc(ccn2)-c2ncnc(n2)Nc2cc(Cl)cc(c2)C1 [Compound 34]    4 (Score 4 = >80% inhibition)
1  O=C1NCCCc2cc(ccn2)-c2ncnc(n2)Nc2cccc(c2)CN2CCCC1C2 (centres unmarked) [Compound 15]  1 (Score 1 = 10-30% inhibition)
2  O=C1NCCCc2cc(ccc2F)-c2ncnc(n2)Nc2cc(Cl)cc(c2)CN[C@H]1CO [Compound 71]    4 (Score 4 = >80% inhibition)

Exercise: Supply C3.6 score value. Item: O=C1NCCc2cccc(c2)Nc2ncnc(n2)-c2ccnc(c2)CCCN2CCCC1C2 (centres unmarked) [Compound 26]
Key: 2 (Score 2 = 30-60% inhibition)

Exercise: Consider the molecule CN1CC(=O)NC/C(Cl)=C/c2cc(ccn2)-c2ncnc(n2)Nc2cccc(c2)C1 [Compound 2] . State its measured C3.6 score.
Key: 4 (Score 4 = >80% inhibition)

Exercise: Identify the reported C3.6 score for the following entry. CCN1CC(=O)NCCCc2cccc(c2)-c2ncnc(n2)Nc2cccc(c2)C1 [Compound 54]
Key: 3 (Score 3 = 60-80% inhibition)

Exercise: Supply recorded C3.6 score for O=C1NCCCc2cc(ccn2)-c2ncnc(n2)Nc2cc(Cl)cc(c2)CN2CCC[C@@H]12 [Compound 38] here.
Key: 2 (Score 2 = 30-60% inhibition)

Exercise: For CN1CC(=O)NCCCc2cc(ccn2)-c2ncnc(n2)Nc2cccc(c2)C1 [Compound 8] , write its C3.6 score.
Key: 3 (Score 3 = 60-80% inhibition)

Exercise: For the molecule O=C1NCCCc2cncc(c2)-c2ncnc(n2)Nc2cccc(c2)CN[C@H]1CO [Compound 81] , give its reported C3.6 score.
Key: 3 (Score 3 = 60-80% inhibition)
